Data origin: patent US8058243B2

# Tested on: murine neural precursor cells (neurosphere cultures)
# EXPERIMENT: HTS of LOPAC library against secondary neurosphere cultures, MTT proliferation assay at 3 μM, day 7 (z score, P value)
# Assay type: cell-based, mouse
# CONDITIONS USED: LOPAC primary screen, neurosphere MTT proliferation, 3 μM, day 7
Structures can show the parent of a compound that is named as a salt.
Property: Z score; scope: individual compounds

>  <COMPOUND>
CN(C)CCCN1c2ccccc2Sc2ccccc21 [Promazine hydrochloride]

>  <SYSTEM UNDER TEST>
murine neural precursor cells (neurosphere cultures)

>  <METRIC NAME>
Z score

>  <RESULT>
−0.888

$$$$

Attention now shifts to the item below.
In: Quick one: Z score for `CN1CCc2cccc(Cl)c2CC1` ?
Out: 0.882
